# reported IC50; entries follow
Molecular target: N-type calcium channel (Human Cav2.2 channels) (Homo sapiens)
Sequence (Q00975 whole entry): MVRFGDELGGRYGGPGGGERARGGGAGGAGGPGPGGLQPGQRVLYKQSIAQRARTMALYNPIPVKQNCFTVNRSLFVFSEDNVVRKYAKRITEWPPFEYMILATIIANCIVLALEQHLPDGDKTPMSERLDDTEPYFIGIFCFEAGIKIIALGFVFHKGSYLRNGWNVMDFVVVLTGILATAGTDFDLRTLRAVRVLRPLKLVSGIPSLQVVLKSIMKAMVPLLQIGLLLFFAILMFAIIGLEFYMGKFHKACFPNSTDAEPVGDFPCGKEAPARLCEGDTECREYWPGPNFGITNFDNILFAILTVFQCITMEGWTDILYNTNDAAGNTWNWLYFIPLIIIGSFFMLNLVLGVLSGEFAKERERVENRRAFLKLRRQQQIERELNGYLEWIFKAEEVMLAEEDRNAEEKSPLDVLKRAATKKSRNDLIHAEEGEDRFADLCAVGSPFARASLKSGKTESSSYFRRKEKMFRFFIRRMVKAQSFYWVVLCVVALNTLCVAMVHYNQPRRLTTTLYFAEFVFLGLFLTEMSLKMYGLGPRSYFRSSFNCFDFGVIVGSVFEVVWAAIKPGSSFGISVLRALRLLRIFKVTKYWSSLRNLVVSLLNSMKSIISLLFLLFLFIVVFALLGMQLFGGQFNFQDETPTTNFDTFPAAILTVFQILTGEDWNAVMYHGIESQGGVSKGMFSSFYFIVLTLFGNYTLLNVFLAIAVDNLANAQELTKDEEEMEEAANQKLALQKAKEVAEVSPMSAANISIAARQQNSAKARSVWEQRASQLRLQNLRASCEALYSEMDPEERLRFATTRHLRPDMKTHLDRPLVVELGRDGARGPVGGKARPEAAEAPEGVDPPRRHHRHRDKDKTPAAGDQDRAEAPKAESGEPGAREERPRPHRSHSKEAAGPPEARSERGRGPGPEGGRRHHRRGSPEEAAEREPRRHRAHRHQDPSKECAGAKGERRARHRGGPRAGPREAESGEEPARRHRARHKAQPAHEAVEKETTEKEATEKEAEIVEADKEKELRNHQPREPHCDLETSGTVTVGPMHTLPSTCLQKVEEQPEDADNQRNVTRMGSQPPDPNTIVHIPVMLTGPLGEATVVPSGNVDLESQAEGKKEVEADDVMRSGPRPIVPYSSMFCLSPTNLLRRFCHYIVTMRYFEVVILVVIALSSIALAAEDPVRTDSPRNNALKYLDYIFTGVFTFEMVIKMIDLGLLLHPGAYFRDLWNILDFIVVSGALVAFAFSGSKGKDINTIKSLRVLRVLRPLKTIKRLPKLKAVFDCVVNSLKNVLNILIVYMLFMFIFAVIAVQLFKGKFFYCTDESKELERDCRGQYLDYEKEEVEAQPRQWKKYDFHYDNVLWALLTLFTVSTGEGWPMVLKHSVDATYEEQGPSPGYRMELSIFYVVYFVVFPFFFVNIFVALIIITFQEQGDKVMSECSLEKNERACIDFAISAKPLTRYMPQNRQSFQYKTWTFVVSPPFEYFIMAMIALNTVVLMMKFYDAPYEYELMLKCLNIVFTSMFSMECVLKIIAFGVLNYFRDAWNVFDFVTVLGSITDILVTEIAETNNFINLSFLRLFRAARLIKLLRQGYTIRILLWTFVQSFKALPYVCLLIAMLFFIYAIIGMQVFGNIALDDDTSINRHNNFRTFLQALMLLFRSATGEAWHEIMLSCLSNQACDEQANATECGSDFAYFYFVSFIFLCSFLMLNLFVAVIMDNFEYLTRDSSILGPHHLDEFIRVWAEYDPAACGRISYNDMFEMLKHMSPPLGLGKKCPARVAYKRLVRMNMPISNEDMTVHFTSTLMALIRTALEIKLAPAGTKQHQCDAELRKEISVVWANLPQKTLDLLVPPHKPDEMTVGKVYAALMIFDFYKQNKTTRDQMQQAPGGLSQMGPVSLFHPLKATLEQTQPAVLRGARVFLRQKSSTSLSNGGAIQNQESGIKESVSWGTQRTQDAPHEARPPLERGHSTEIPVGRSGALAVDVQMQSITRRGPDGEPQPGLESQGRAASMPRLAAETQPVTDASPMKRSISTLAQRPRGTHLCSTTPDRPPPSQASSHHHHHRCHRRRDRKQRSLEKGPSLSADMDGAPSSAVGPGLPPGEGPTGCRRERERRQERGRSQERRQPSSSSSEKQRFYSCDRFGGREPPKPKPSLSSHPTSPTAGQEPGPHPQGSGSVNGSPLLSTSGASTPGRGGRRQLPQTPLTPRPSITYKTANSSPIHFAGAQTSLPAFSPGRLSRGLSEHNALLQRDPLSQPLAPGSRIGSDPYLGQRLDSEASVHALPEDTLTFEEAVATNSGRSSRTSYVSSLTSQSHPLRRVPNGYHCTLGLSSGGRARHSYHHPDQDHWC
Test: N-type calcium channel (Cav2.2) antagonist assays: fluorescent potassium depolarization assay, IonWorks and PatchXpress/manual patch clamp electrophysiology
Conditions: in the aforementioned assays (Assay Examples 1-3); the specific assay is not stated; read-out: IC50, antagonizing the N-type calcium channel
# value in nM; strip the unit string

{"compound": "CC1(Cc2cc(F)cc(F)c2)C(=O)Nc2ccc(-c3ccc(F)cc3)cc21 (centres unmarked) [Example 12]", "IC50 / nM": 590}

Okay, now this compound:
Lab note: CC1(Cc2cncnc2)C(=O)Nc2ccc(-c3cccc(OCC(F)(F)F)c3)cc21 (centres unmarked) [Example 15] gave IC50 of 140
